Below, each of the compounds is paired with its reported CARBON DIOXIDE value.
Organism: Rattus norvegicus
EXPERIMENTAL PROTOCOL: DrugMatrix - Regimen: Daily Repeat
Format: toxicity, organism-based, Sprague-Dawley
Design: regimen Daily Repeat, gender Male, age 6-8 weeks
CONDITION SUMMARY: in vivo, po, 0 mg/kg, 72 h, tissue Plasma, route oral GAVAGE, dose level Control, time 3 day, vehicle 100 % WATER
EXPERIMENTAL READOUT: CARBON DIOXIDE (mmol/L)

| COMPOUND | EXPERIMENTAL READOUT | UNIT STRING | DATA VALUE |
| --- | --- | --- | --- |
| C[C@]12C=CC(=O)C=C1CC[C@@H]1[C@@H]2[C@@H](O)C[C@@]2(C)[C@H]1CC[C@]2(O)C(=O)CO [PREDNISOLONE] | CARBON DIOXIDE | mmol/L | 29.17 |
| CC(C)(C)CC(C)(C)c1ccc(OCCOCC[N+](C)(C)Cc2ccccc2)cc1.[Cl-] [BENZETHONIUM CHLORIDE] | CARBON DIOXIDE | mmol/L | 29.83 |
| NNc1nncc2ccccc12 [HYDRALAZINE] | CARBON DIOXIDE | mmol/L | 29.83 |
| CN(C)CCOC(c1ccccc1)c1ccccc1 [DIPHENHYDRAMINE] | CARBON DIOXIDE | mmol/L | 29.83 |
| CN1[C@@H]2CC[C@H]1C[C@@H](OC(=O)C(CO)c1ccccc1)C2 (stereo not given in full) [ATROPINE] | CARBON DIOXIDE | mmol/L | 29.83 |

###

Species: Rattus norvegicus
EXPERIMENTAL PROTOCOL: DrugMatrix - Regimen: Daily Repeat
Assay type: toxicity, organism-based, Sprague-Dawley
Parameters: regimen Daily Repeat, gender Male, age 6-8 weeks
CONDITION SUMMARY: in vivo, po, 0 mg/kg, 72 h, tissue Plasma, route oral GAVAGE, dose level Control, time 3 day, vehicle .5 % CMC
Overview of recorded CHOLESTEROL for various compounds
EXPERIMENTAL READOUT: CHOLESTEROL (mg/dL)

| COMPOUND | EXPERIMENTAL READOUT | UNIT STRING | DATA VALUE |
| --- | --- | --- | --- |
| O=C1CN=C(c2ccccc2Cl)c2cc([N+](=O)[O-])ccc2N1 | CHOLESTEROL | mg/dL | 70 |
| COC1=C(OC)C(=O)C(CCCCCCCCCCO)=C(C)C1=O | CHOLESTEROL | mg/dL | 70 |
| C[C@H]1O[C@@H](n2cc(F)c(=O)[nH]c2=O)[C@H](O)[C@@H]1O | CHOLESTEROL | mg/dL | 70 |
| CN(C)[C@@H]1C(O)=C(C(N)=O)C(=O)[C@@]2(O)C(O)=C3C(=O)c4c(O)ccc(Cl)c4[C@@](C)(O)[C@H]3C[C@@H]12 | CHOLESTEROL | mg/dL | 71.67 |
| Cn1c(=O)c2c(ncn2CC(O)CO)n(C)c1=O (stereo unspecified) | CHOLESTEROL | mg/dL | 71.67 |
| CN/C(=N/CCSCc1nc[nH]c1C)NC#N | CHOLESTEROL | mg/dL | 70 |

###

Species: Rattus norvegicus
EXPERIMENTAL PROTOCOL: DrugMatrix - Regimen: Daily Repeat
Type: toxicity, organism-based, Sprague-Dawley
Parameters: regimen Daily Repeat, gender Male, age 6-8 weeks
CONDITION SUMMARY: in vivo, po, 0 mg/kg, 120 h, tissue Plasma, route oral GAVAGE, dose level Control, time 5 day, vehicle 100 % WATER

| COMPOUND | UNIT STRING | POTASSIUM |
| --- | --- | --- |
| CC(C)NCC(O)c1ccc(NS(C)(=O)=O)cc1 (stereo not drawn) [SOTALOL] | MEQ/L | 7.09 |
| Oc1cccc(O)c1O [PYROGALLOL] | MEQ/L | 7.05 |
| C[C@]12C=CC(=O)C=C1CC[C@@H]1[C@@H]2[C@@H](O)C[C@@]2(C)[C@H]1CC[C@]2(O)C(=O)CO [PREDNISOLONE] | MEQ/L | 6.5 |

###

Species on record: Rattus norvegicus
EXPERIMENTAL PROTOCOL: DrugMatrix - Regimen: Daily Repeat
Format: toxicity, organism-based, Sprague-Dawley
Parameters: regimen Daily Repeat, gender Male, age 6-8 weeks
CONDITION SUMMARY: in vivo, po, 0 mg/kg, 120 h, tissue Plasma, route oral GAVAGE, dose level Control, time 5 day, vehicle 100 % WATER

| COMPOUND | GLUCOSE / mg/dL |
| --- | --- |
| CN(C)CC[C@@H](c1ccc(Cl)cc1)c1ccccn1 | 152.5 |
| NNc1nncc2ccccc12 [HYDRALAZINE] | 152.67 |
| Cn1c(=O)c2[nH]cnc2n(C)c1=O.O | 161.83 |

###

Species: Rattus norvegicus
EXPERIMENTAL PROTOCOL: DrugMatrix - Regimen: Daily Repeat
Assay type: toxicity, organism-based, Sprague-Dawley
Design: regimen Daily Repeat, gender Male, age 6-8 weeks
CONDITION SUMMARY: in vivo, po, 1500 mg/kg, 120 h, tissue Blood, route oral GAVAGE, dose level High, time 5 day, vehicle .5 % CMC
EXPERIMENTAL READOUT: NUCLEATED RED BLOOD CELLS

| SMILES REPR | DATA VALUE |
| --- | --- |
| CC(C)Oc1ccc2c(=O)c(-c3ccccc3)coc2c1 | 0 /100WBC |
| CC(C)=CCC/C(C)=C/CO | 0 /100WBC |
| O=c1cnn([C@@H]2O[C@H](CO)[C@@H](O)[C@H]2O)c(=O)[nH]1 | 0 /100WBC |

###

Species: Rattus norvegicus
EXPERIMENTAL PROTOCOL: DrugMatrix - Regimen: Daily Repeat
Assay type: toxicity, organism-based, Sprague-Dawley
Parameters: regimen Daily Repeat, gender Male, age 6-8 weeks
CONDITION SUMMARY: in vivo, po, 0 mg/kg, 72 h, tissue Plasma, route oral GAVAGE, dose level Control, time 3 day, vehicle 100 % WATER

| MOLECULE | UNIT STRING | CHLORIDE |
| --- | --- | --- |
| Cc1ccc(NC(=O)c2ccc(CN3CCN(C)CC3)cc2)cc1Nc1nccc(-c2cccnc2)n1 | MEQ/L | 101.83 |
| NNc1nncc2ccccc12 [HYDRALAZINE] | MEQ/L | 99.5 |
| Oc1cccc(O)c1O | MEQ/L | 101.67 |
| CN(C)CCOC(c1ccccc1)c1ccccc1 [DIPHENHYDRAMINE] | MEQ/L | 99.5 |
| C[C@]12C=CC(=O)C=C1CC[C@@H]1[C@@H]2[C@@H](O)C[C@@]2(C)[C@H]1CC[C@]2(O)C(=O)CO | MEQ/L | 99.83 |
| CCN(CC)CCNC(=O)c1cc(S(C)(=O)=O)ccc1OC [TIAPRIDE] | MEQ/L | 101.83 |
| CS(=O)(=O)c1ccc([C@@H](O)[C@@H](CO)NC(=O)C(Cl)Cl)cc1 | MEQ/L | 101.83 |
| CN1[C@@H]2CC[C@H]1C[C@@H](OC(=O)C(CO)c1ccccc1)C2 (stereo partly drawn) | MEQ/L | 97.8 |

###

Species on record: Rattus norvegicus
EXPERIMENTAL PROTOCOL: DrugMatrix - Regimen: Daily Repeat
Type: toxicity, organism-based, Sprague-Dawley
Parameters: regimen Daily Repeat, gender Male, age 6-8 weeks
CONDITION SUMMARY: in vivo, po, 0 mg/kg, 72 h, tissue Blood, route oral GAVAGE, dose level Control, time 3 day, vehicle .5 % CMC
Property: NEUTROPHIL; scope: individual compounds
EXPERIMENTAL READOUT: NEUTROPHIL (%)

| COMPOUND | DATA VALUE |
| --- | --- |
| CNCCC(Oc1ccc(C(F)(F)F)cc1)c1ccccc1 (centres undefined) [FLUOXETINE] | 10.83 |
| CCN(CC)CCOc1ccc(/C(=C(/Cl)c2ccccc2)c2ccccc2)cc1 [ENCLOMIPHENE] | 9.33 |
| C[C@H]1O[C@@H](n2cc(F)c(=O)[nH]c2=O)[C@H](O)[C@@H]1O [DOXIFLURIDINE] | 8.83 |
| O=C1Nc2ccc(Cl)cc2C(c2ccccc2Cl)=NC1O (centres undefined) [LORAZEPAM] | 7.67 |

###

Species: Rattus norvegicus
EXPERIMENTAL PROTOCOL: DrugMatrix - Regimen: Daily Repeat
Format: toxicity, organism-based, Sprague-Dawley
Parameters: regimen Daily Repeat, gender Male, age 6-8 weeks
CONDITION SUMMARY: in vivo, po, 2000 mg/kg, 72 h, tissue Plasma, route oral GAVAGE, dose level High, time 3 day, vehicle .5 % CMC
// reported TOTAL PROTEIN for each item listed

| COMPOUND | TOTAL PROTEIN |
| --- | --- |
| NC1CCN(c2nc3c(cc2F)c(=O)c(C(=O)O)cn3-c2ccc(F)cc2F)C1 (stereo not drawn) | 6.17 G/DL |
| CN(C/C=C/C#CC(C)(C)C)Cc1cccc2ccccc12 | 5.9 G/DL |
| CC1(C)S[C@@H]2[C@H](NC(=O)[C@H](N)c3ccccc3)C(=O)N2[C@H]1C(=O)O | 6 G/DL |
